Every entry's value here was drawn from paper PMC11070402.

system: SR; test: NCI one-dose assay, SR; assay type: cell-based; details: Homo sapiens; SR (Leukemia), 10 uM single dose; read-out: Growth inhibition %
Readings of inhibition at 10 µM for the listed compounds
Numeric answer only, unit % assumed.

Use the examples below as a reference point.
>>> result("COc1ccc(C(=O)COc2ccc(/C=C3/C(=O)Nc4cc(Cl)ccc43)cc2)cc1")
16.7
>>> result("COc1ccc(C(=O)COc2ccc(C=C3C(=O)Nc4ccccc43)cc2)cc1")
19.2
>>> result("O=C1Nc2ccc(F)cc2/C1=C\\c1ccc(OCC(=O)c2ccccc2)cc1")
25.2

Shifting focus to the compound that follows.
# inhibition at 10 µM of `COc1ccc(C(=O)COc2ccc(C=C3C(=O)Nc4ccc(Cl)cc43)cc2)cc1` = 21.2

###

test system: 60 human cancer cell lines; assay: NCI one-dose assay against sixty NCI cancer cell lines; assay type: cell-based; conditions: UACC-62 (Melanoma), 10 uM single dose, read-out: Growth inhibition %
Readings of inhibition at 10 µM for the listed compounds
Numeric answer only, unit % assumed.

>>> result("O=C1Nc2ccccc2C1=Cc1ccc(OCC(=O)c2ccc(Br)cc2)cc1")
47.4
>>> result("COc1ccc(C(=O)COc2ccc(C=C3C(=O)Nc4ccccc43)cc2)cc1")
31.5
>>> result("COc1ccc(C(=O)COc2ccc(C=C3C(=O)Nc4ccc(Cl)cc43)cc2)cc1")
20.1
>>> result("O=C1Nc2ccc(Cl)cc2C1=Cc1ccc(OCC(=O)c2ccccc2)cc1")
25.1
>>> result("O=C1Nc2cc(Cl)ccc2C1=Cc1ccc(OCC(=O)c2ccccc2)cc1")
27.9

Item: `O=C1Nc2ccc(F)cc2/C1=C\c1ccc(OCC(=O)c2ccccc2)cc1` | System: 60 human cancer cell lines | inhibition at 10 µM: 30.6

Item: `O=C1Nc2ccccc2C1=Cc1ccc(OCC(=O)c2ccccc2)cc1` | System: 60 human cancer cell lines | inhibition at 10 µM: 12.9

Item: `O=C1Nc2cc(Cl)ccc2C1=Cc1ccc(OCC(=O)c2ccc(Br)cc2)cc1` | System: 60 human cancer cell lines | inhibition at 10 µM: 42

Item: `COc1ccc2c(c1)C(=Cc1ccc(OCC(=O)c3ccccc3)cc1)C(=O)N2` | System: 60 human cancer cell lines | inhibition at 10 µM: 24.7

Item: `COc1ccc(C(=O)COc2ccc(/C=C3/C(=O)Nc4cc(Cl)ccc43)cc2)cc1` | System: 60 human cancer cell lines | inhibition at 10 µM: 23.8

###

Readings of inhibition at 10 µM for the listed molecules
tested on: 60 human cancer cell lines; test: NCI one-dose assay against sixty NCI cancer cell lines; format: cell-based; settings: M14 (Melanoma), 10 uM single dose, read-out: Growth inhibition %
Numeric answer only, unit % assumed.

Use the examples below as a reference point.
>>> result("COc1ccc(C(=O)COc2ccc(C=C3C(=O)Nc4ccccc43)cc2)cc1 [Compound 6h]")
12.1
>>> result("O=C1Nc2ccccc2C1=Cc1ccc(OCC(=O)c2ccc(Br)cc2)cc1 [Compound 6f]")
26.9
>>> result("O=C1Nc2cc(Cl)ccc2C1=Cc1ccc(OCC(=O)c2ccccc2)cc1 [Compound 6c]")
11.1
>>> result("COc1ccc(C(=O)COc2ccc(/C=C3/C(=O)Nc4cc(Cl)ccc43)cc2)cc1 [Compound 6j]")
10.3
>>> result("O=C1Nc2cc(Cl)ccc2C1=Cc1ccc(OCC(=O)c2ccc(Br)cc2)cc1 [Compound 6g]")
31.1

Shifting focus to the molecule that follows.
# inhibition at 10 µM of O=C1Nc2ccc(F)cc2/C1=C\c1ccc(OCC(=O)c2ccccc2)cc1 [Compound 6d] = 12.1

###

Test system: 60 human cancer cell lines
Test: NCI one-dose assay against sixty NCI cancer cell lines
Assay type: cell-based
Conditions: CCRF-CEM (Leukemia), 10 uM single dose, read-out: Growth inhibition %
Method: All novel scaffolds 6a–j were carefully selected by the National Cancer Institute (NCI), Bethesda, USA, to elucidate their cytotoxic activity versus 60 human cancer cell lines at 10 µM as a single-dose concentration after a 48 h incubation period. National Cancer Institution selected all the synthesized 6a–j (NCI), Bethesda, USA, for in vitro one-dose antitumor assay. The methodology protocol for the NCI anticancer screening was reported in detail elsewhere (http://www.dtp.nci.nih.gov). […]
quantity.name: inhibition at 10 µM (%)
Numeric answer only, unit % assumed.

>>> result("O=C1Nc2ccc(F)cc2/C1=C\\c1ccc(OCC(=O)c2ccccc2)cc1 [Compound 6d]")
15.6

# inhibition at 10 µM of COc1ccc(C(=O)COc2ccc(C=C3C(=O)Nc4ccccc43)cc2)cc1 [Compound 6h] = 14

# inhibition at 10 µM of O=C1Nc2ccccc2C1=Cc1ccc(OCC(=O)c2ccc(Br)cc2)cc1 [Compound 6f] = 41.8

# inhibition at 10 µM of COc1ccc(C(=O)COc2ccc(C=C3C(=O)Nc4ccc(Cl)cc43)cc2)cc1 [Compound 6i] = 12.5

# inhibition at 10 µM of O=C1Nc2cc(Cl)ccc2C1=Cc1ccc(OCC(=O)c2ccc(Br)cc2)cc1 [Compound 6g] = 34.3

###

system: 60 human cancer cell lines; assay: NCI one-dose assay against sixty NCI cancer cell lines; assay type: cell-based; settings: HL-60(TB) (Leukemia), 10 uM single dose, read-out: Growth inhibition %
quantity.name: inhibition at 10 µM (%)
Numeric answer only, unit % assumed.

Use the examples below as a reference point.
>>> result("O=C1Nc2ccc(F)cc2/C1=C\\c1ccc(OCC(=O)c2ccccc2)cc1")
16.9
>>> result("COc1ccc(C(=O)COc2ccc(C=C3C(=O)Nc4ccccc43)cc2)cc1")
20.8
>>> result("O=C1Nc2ccccc2C1=Cc1ccc(OCC(=O)c2ccc(Br)cc2)cc1")
59.6

Shifting focus to the molecule that follows.
# inhibition at 10 µM of `O=C1Nc2cc(Cl)ccc2C1=Cc1ccc(OCC(=O)c2ccc(Br)cc2)cc1` = 53.8

###

tested on: MCF-7 (human breast cancer); test: Cytotoxicity versus MCF-7 cell line (MTT assay); conditions: MCF7, read-out: MCF-7 (IC50 ± SD, uM)
Readings of IC50 for the listed molecules
Numeric answer only, unit µM assumed.

>>> result("O=C1Nc2cc(Cl)ccc2C1=Cc1ccc(OCC(=O)c2ccc(Br)cc2)cc1")
25.4
>>> result("O=C1Nc2ccccc2C1=Cc1ccc(OCC(=O)c2ccc(Br)cc2)cc1")
14.8

Shifting focus to the molecule that follows.
# IC50 of O=c1[nH]cc(F)c(=O)[nH]1 [5FU, 5-fluorouracil, reference compound] = 2.02

###

Readings of inhibition at 10 µM for the listed molecules
test system: 60 human cancer cell lines; assay: NCI one-dose assay against sixty NCI cancer cell lines; assay type: cell-based; settings: HCT-15 (Colon Cancer), 10 uM single dose, read-out: Growth inhibition %
Numeric answer only, unit % assumed.

Use the examples below as a reference point.
>>> result("O=C1Nc2ccc(Cl)cc2C1=Cc1ccc(OCC(=O)c2ccccc2)cc1 [Compound 6b]")
11.9
>>> result("O=C1Nc2ccc(F)cc2/C1=C\\c1ccc(OCC(=O)c2ccccc2)cc1 [Compound 6d]")
11.7
>>> result("O=C1Nc2cc(Cl)ccc2C1=Cc1ccc(OCC(=O)c2ccccc2)cc1 [Compound 6c]")
23.5

Item: O=C1Nc2ccccc2C1=Cc1ccc(OCC(=O)c2ccc(Br)cc2)cc1 [Compound 6f] | System: 60 human cancer cell lines | inhibition at 10 µM: 54.6

Item: O=C1Nc2cc(Cl)ccc2C1=Cc1ccc(OCC(=O)c2ccc(Br)cc2)cc1 [Compound 6g] | System: 60 human cancer cell lines | inhibition at 10 µM: 46.9

Item: COc1ccc2c(c1)C(=Cc1ccc(OCC(=O)c3ccccc3)cc1)C(=O)N2 [Compound 6e] | System: 60 human cancer cell lines | inhibition at 10 µM: 10.3

Item: COc1ccc(C(=O)COc2ccc(C=C3C(=O)Nc4ccccc43)cc2)cc1 [Compound 6h] | System: 60 human cancer cell lines | inhibition at 10 µM: 15.2

###

tested on: Human Skin Fibroblasts (HSF) cells; assay: Margin of safety: cytotoxicity on human skin fibroblasts (SRB assay); type: cell-based; details: Human Skin Fibroblasts, SRB assay, 72 h exposure; read-out: HSF (IC50 ± SD)
quantity.name: IC50 (µM)
Numeric answer only, unit µM assumed.

# IC50 of `O=C1Nc2ccccc2C1=Cc1ccc(OCC(=O)c2ccc(Br)cc2)cc1` = 19.4

###

quantity.name: melting point

# melting point of `O=C1Nc2ccc(Cl)cc2C1=Cc1ccc(OCC(=O)c2ccccc2)cc1` = 189 to 191 °C

# melting point of `O=C1Nc2cc(Cl)ccc2C1=Cc1ccc(OCC(=O)c2ccc(Br)cc2)cc1` = 249 to 251 °C

# melting point of `COc1ccc(C(=O)COc2ccc(/C=C3/C(=O)Nc4cc(Cl)ccc43)cc2)cc1` = 165 to 167 °C

# melting point of `O=C1Nc2ccc(F)cc2/C1=C\c1ccc(OCC(=O)c2ccccc2)cc1` = 223 to 226 °C

# melting point of `COc1ccc(C(=O)COc2ccc(C=C3C(=O)Nc4ccc(Cl)cc43)cc2)cc1` = 183 to 185 °C

# melting point of `COc1ccc2c(c1)C(=Cc1ccc(OCC(=O)c3ccccc3)cc1)C(=O)N2` = 196 to 198 °C

# melting point of `O=C1Nc2cc(Cl)ccc2C1=Cc1ccc(OCC(=O)c2ccccc2)cc1` = 199 to 201 °C

# melting point of `COc1ccc(C(=O)COc2ccc(C=C3C(=O)Nc4ccccc43)cc2)cc1` = 192 to 194 °C

# melting point of `O=C1Nc2ccccc2C1=Cc1ccc(OCC(=O)c2ccccc2)cc1` = 219 to 221 °C
